Every entry's value here was drawn from patent US20210045385A1.

Measured Barnyardgrass plant response rating (0 to 100 scale), listed per entry.
Tested on: barnyardgrass (Echinochloa crus-galli)
PROTOCOL DETAILS: Test C preemergence, visual plant response rating
Format: in vivo
MEASUREMENT SETUP: Test C, 125 g ai/ha, 0 is no effect, 100 is complete control
Could you keep your reply to the number by itself?

Guide cases for Barnyardgrass plant response rating (0 to 100 scale), answers given:
INSERT INTO assay_data (structure_string, test_system, readout_number) VALUES
  ('C#CCO/N=C(\c1cccc(/C=C\Cl)c1)c1c(O)c(C)nn(C)c1=O', 'barnyardgrass (Echinochloa crus-galli)', 0),
  ('CON=C(c1cccc(OC)c1)c1c(O)c(C)nn(C)c1=O', 'barnyardgrass (Echinochloa crus-galli)', 0),
  ('CCO/N=C(\c1c(O)c(C)nn(C)c1=O)c1cccc2cc(Cl)ccc12', 'barnyardgrass (Echinochloa crus-galli)', 80),
  ('CO/N=C(\c1ccc(F)c(Cl)c1)c1c(O)c(C)nn(C)c1=O', 'barnyardgrass (Echinochloa crus-galli)', 0),
  ('Cc1nn(C)c(=O)c(/C(=N/OCCO)c2cccc3cc(Cl)ccc23)c1O', 'barnyardgrass (Echinochloa crus-galli)', 0),
  ('CC(C)O/N=C(/c1c(O)c(Cl)nn(C)c1=O)c1cc(Br)cc2ccccc12', 'barnyardgrass (Echinochloa crus-galli)', 100),
  ('CON=C(c1cccc(OC(F)F)c1)c1c(O)c(C)nn(C)c1=O', 'barnyardgrass (Echinochloa crus-galli)', 0),
  ('C#CCO/N=C(/c1c(O)c(C)nn(C)c1=O)c1cc(Cl)cc2ccccc12', 'barnyardgrass (Echinochloa crus-galli)', 90),
  ('CO/N=C(\c1cc(Cl)c(F)c(Cl)c1)c1c(O)c(C)nn(C)c1=O', 'barnyardgrass (Echinochloa crus-galli)', 0),
  ('C#CCON=C(c1cccc(OC)c1)c1c(O)c(C)nn(C)c1=O', 'barnyardgrass (Echinochloa crus-galli)', 0);

IN: What value of Barnyardgrass plant response rating (0 to 100 scale) on barnyardgrass (Echinochloa crus-galli) does C#CCON=C(c1cccc(OCC)c1)c1c(O)c(C)nn(C)c1=O have?
OUT: 0

IN: What value of Barnyardgrass plant response rating (0 to 100 scale) on barnyardgrass (Echinochloa crus-galli) does Cc1nn(C)c(=O)c(/C(=N\OC(C)C)c2cccc3cc(Cl)ccc23)c1O have?
OUT: 60

====

Tested on: corn (Zea mays)
PROTOCOL DETAILS: Test A postemergence, visual plant response rating
Format: in vivo
MEASUREMENT SETUP: Postemergence, 125 g ai/ha; 0 to 100 scale (0 no effect, 100 complete control)
QUANTITY NAME: Corn plant response rating
Could you keep your reply to the number by itself?

INSERT INTO results (structure_string, readout_number) VALUES
  ('CON=C(c1cc(Cl)ccc1C(F)(F)F)c1c(O)c(C)nn(C)c1=O', 0);

IN: Quick one: Corn plant response rating for CON=C(c1ccc(F)cc1C)c1c(O)c(C)nn(C)c1=O ?
OUT: 0

IN: Quick one: Corn plant response rating for CO/N=C(/c1c(OC(C)=O)c(Cl)nn(C)c1=O)c1cccc2ccccc12 ?
OUT: 10

IN: Quick one: Corn plant response rating for Cc1ccccc1/C(=N/OC(C)C)c1c(O)c(C)nn(C)c1=O ?
OUT: 0

====

System: ragweed (common ragweed, Ambrosia elatior)
PROTOCOL DETAILS: Test A preemergence, visual plant response rating
Assay type: in vivo
MEASUREMENT SETUP: 125 g ai/ha Preemergence; approx. 10 days
QUANTITY NAME: Ragweed plant response rating (0 to 100 scale)

Guide cases for Ragweed plant response rating (0 to 100 scale), answers given:
INSERT INTO assay_data (molecule, result) VALUES
  ('CO/N=C(/c1cc(C)ccc1C)c1c(O)c(C)nn(C)c1=O [Compound 30]', 20),
  ('CO/N=C(/c1c(O)c(C)nn(C)c1=O)c1cccc2ccccc12 [Compound 31]', 30),
  ('CCO/N=C(\c1cccc(Cl)c1)c1c(O)c(C)nn(C)c1=O [Compound 8]', 0),
  ('CON=C(c1cccc(Cl)c1)c1c(O)c(C)nn(C2CC2)c1=O (mixture of isomers) [Compound 33]', 0);

Now take the following molecule into account.
IN: Quick one: Ragweed plant response rating (0 to 100 scale) for CCO/N=C(/c1cccc(Cl)c1)c1c(O)c(C)nn(C)c1=O [Compound 9] ?
OUT: 80

====

Tested on: duck salad (Heteranthera limosa)
PROTOCOL DETAILS: Test D flooded paddy test, visual plant response rating
Format: in vivo
MEASUREMENT SETUP: 250 g ai/ha, scale 0 to 100 (0 no effect, 100 complete control), 13 to 15 d
Measured Plant response rating, Ducksalad (Flood), listed per entry.
Could you keep your reply to the number by itself?

Guide cases for Plant response rating, Ducksalad (Flood), answers given:
INSERT INTO results (structure_string, test_system, quantity_name, readout_number) VALUES
  ('C#CCON=C(c1cc(Cl)cc(Cl)c1Cl)c1c(O)c(C)nn(C)c1=O', 'duck salad (Heteranthera limosa)', 'Plant response rating, Ducksalad (Flood)', 0),
  ('C#CCO/N=C(/c1c(O)cnn(C)c1=O)c1cccc2ccccc12', 'duck salad (Heteranthera limosa)', 'Plant response rating, Ducksalad (Flood)', 0),
  ('CO/N=C(\c1cccc(/C=C\Cl)c1)c1c(O)c(C)nn(C)c1=O', 'duck salad (Heteranthera limosa)', 'Plant response rating, Ducksalad (Flood)', 0),
  ('C#CCO/N=C(/c1cccc(Br)c1)c1c(O)c(C)nn(C)c1=O', 'duck salad (Heteranthera limosa)', 'Plant response rating, Ducksalad (Flood)', 0),
  ('C#CCON=C(c1cccc(OCC(F)(F)F)c1)c1c(O)c(C)nn(C)c1=O', 'duck salad (Heteranthera limosa)', 'Plant response rating, Ducksalad (Flood)', 0),
  ('Cc1nn(C)c(=O)c(C(=NOCC2CC2)c2cc(Cl)cc(Cl)c2Cl)c1O', 'duck salad (Heteranthera limosa)', 'Plant response rating, Ducksalad (Flood)', 0);

IN: What value of Plant response rating, Ducksalad (Flood) on duck salad (Heteranthera limosa) does CCO/N=C(/c1c(O)c(C)nn(C)c1=O)c1cccc2cc(Cl)ccc12 have?
OUT: 50

IN: What value of Plant response rating, Ducksalad (Flood) on duck salad (Heteranthera limosa) does Cc1nn(C)c(=O)c(/C(=N/OC(C)C)c2cccc3cc(Cl)ccc23)c1O have?
OUT: 30

IN: What value of Plant response rating, Ducksalad (Flood) on duck salad (Heteranthera limosa) does CO/N=C(\c1c(O)c(C)nn(C)c1=O)c1cccc2cc(Cl)ccc12 have?
OUT: 55

====

System: corn (Zea mays)
PROTOCOL DETAILS: Test C postemergence, visual plant response rating
Assay type: in vivo
MEASUREMENT SETUP: Test C, postemergence, 125 g ai/ha
QUANTITY NAME: Corn plant response rating (0 to 100 scale)

Guide cases for Corn plant response rating (0 to 100 scale), answers given:
INSERT INTO measurements (compound, result) VALUES
  ('C=CCO/N=C(/c1c(O)c(C)nn(C)c1=O)c1cccc2cc(Cl)ccc12 [Compound 246]', 10),
  ('CON=C(c1cc(F)cc(F)c1F)c1c(O)c(C)nn(C)c1=O [Compound 226]', 0),
  ('CO/N=C(/c1c(O)cnn(C)c1=O)c1ccc(F)c2ccccc12 [Compound 304]', 20);

IN: Quick one: Corn plant response rating (0 to 100 scale) for CCO/N=C(\c1c(O)cnn(C)c1=O)c1ccc(F)c2ccccc12 [Compound 269] ?
OUT: 20

IN: Quick one: Corn plant response rating (0 to 100 scale) for CCCCON=C(c1cc(Cl)cc(Cl)c1Cl)c1c(O)c(C)nn(C)c1=O [Compound 268] ?
OUT: 30

====

Tested on: foxtail, giant (giant foxtail, Setaria faberii)
PROTOCOL DETAILS: Test A preemergence, visual plant response rating
Type: in vivo
MEASUREMENT SETUP: 500 g ai/ha Preemergence; approx. 10 days
From the text: […]
Measured Foxtail, Giant plant response rating (0 to 100 scale), listed per entry.
Could you keep your reply to the number by itself?

Guide cases for Foxtail, Giant plant response rating (0 to 100 scale), answers given:
INSERT INTO results (compound, readout_number) VALUES
  ('CCCO/N=C(/c1c(O)c(C)nn(C)c1=O)c1cccc2ccccc12', 100),
  ('C#CCO/N=C(/c1c(O)c(C)nn(C)c1=O)c1cc(Br)cc2ccccc12', 100);

Now take the following compound into account.
IN: Quick one: Foxtail, Giant plant response rating (0 to 100 scale) for CON=C(c1c(O)c(C)nn(C)c1=O)c1cccc2ccc(Cl)cc12 [Compound 110] ?
OUT: 100

====

Measured Pigweed plant response rating (0 to 100 scale), listed per entry.
Test system: pigweed (Amaranthus retroflexus)
PROTOCOL DETAILS: Test C postemergence, visual plant response rating
Assay type: in vivo
MEASUREMENT SETUP: Postemergence, 31 g ai/ha
Could you keep your reply to the number by itself?

IN: What value of Pigweed plant response rating (0 to 100 scale) on pigweed (Amaranthus retroflexus) does C#CCON=C(c1cccc(OCC)c1)c1c(O)c(C)nn(C)c1=O have?
OUT: 0

IN: What value of Pigweed plant response rating (0 to 100 scale) on pigweed (Amaranthus retroflexus) does CC(C)O/N=C(/c1c(O)c(Cl)nn(C)c1=O)c1cc(Br)cc2ccccc12 have?
OUT: 70

IN: What value of Pigweed plant response rating (0 to 100 scale) on pigweed (Amaranthus retroflexus) does CON=C(c1cccc(OCC(F)(F)F)c1)c1c(O)c(C)nn(C)c1=O have?
OUT: 0

IN: What value of Pigweed plant response rating (0 to 100 scale) on pigweed (Amaranthus retroflexus) does Cc1nn(C)c(=O)c(C(=NOC(C)C)c2cc(Cl)cc(Cl)c2Cl)c1O have?
OUT: 60

IN: What value of Pigweed plant response rating (0 to 100 scale) on pigweed (Amaranthus retroflexus) does C#CCON=C(c1ccc(Cl)c(Cl)c1)c1c(O)c(C)nn(C)c1=O have?
OUT: 20

IN: What value of Pigweed plant response rating (0 to 100 scale) on pigweed (Amaranthus retroflexus) does CON=C(c1cc(Cl)cc(Cl)c1Cl)c1c(O)c(C)nn(C)c1=O have?
OUT: 80

IN: What value of Pigweed plant response rating (0 to 100 scale) on pigweed (Amaranthus retroflexus) does CON=C(c1cc(Cl)cc(Cl)c1F)c1c(O)c(C)nn(C)c1=O [Compound 299] have?
OUT: 90

IN: What value of Pigweed plant response rating (0 to 100 scale) on pigweed (Amaranthus retroflexus) does CO/N=C(\c1ccc(Cl)c(Cl)c1)c1c(O)c(C)nn(C)c1=O have?
OUT: 10
